# Tested on: S. aureus strain ATCC 13709 (methicillin-susceptible)
# experimental.protocol: Murine model for lethal bacteremic peritonitis
# Type: in vivo, female Swiss-Webster mice
# test.context: Staphylococcus aureus, ATCC13709; Dose 2.5 mg/kg, SC, 72 h; read-out: Survivors
Where a name gives a salt, the structure may show the parent alone.
Reported responders at 2.5 mg/kg is given for each of the following compounds.
quantity.kind: responders at 2.5 mg/kg (%)

INSERT INTO assay_data (compound, value_measured) VALUES
  ('CNCCNCCSCc1cnccc1SC1=C(C(=O)O)N2C(=O)[C@@H](NC(=O)/C(=N\O)c3nc(N)sc3Cl)[C@H]2SC1 [Cmpd 57, trifluoroacetic acid salt]', 50),
  ('NCCCSCc1cnccc1SC1=C(C(=O)O)N2C(=O)[C@@H](NC(=O)/C(=N\O)c3nc(N)sc3Cl)[C@H]2SC1 [Cmpd 27, trifluoroacetic acid salt]', 60),
  ('NCCSCc1cnccc1SC1=C(C(=O)O)N2C(=O)[C@@H](NC(=O)/C(=N\O)c3nc(N)sc3Cl)[C@H]2SC1 [Cmpd 16, trifluoroacetic acid salt]', 80),
  ('CNCCNCCSCc1nnsc1SC1=C(C(=O)O)N2C(=O)[C@@H](NC(=O)/C(=N\OCCF)c3nc(N)sc3Cl)[C@H]2SC1.O=C(O)C(F)(F)F [Cmpd 28, trifluoroacetic acid salt]', 30),
  ('CN(C)C(=O)[C@@H](N)CSCc1cnccc1SC1=C(C(=O)O)N2C(=O)[C@@H](NC(=O)/C(=N\O)c3nc(N)sc3Cl)[C@H]2SC1 [Cmpd 58, trifluoroacetic acid salt]', 50),
  ('NC(=O)CSCc1cnccc1SC1=C(C(=O)O)N2C(=O)[C@@H](NC(=O)/C(=N\O)c3nc(N)sc3Cl)[C@H]2SC1', 60),
  ('CNCCSCc1cnccc1SC1=C(C(=O)O)N2C(=O)[C@@H](NC(=O)/C(=N\O)c3csc(N)n3)[C@H]2SC1 [Cmpd 15, trifluoroacetic acid salt]', 50),
  ('N=C(N)SCc1cnccc1SC1=C(C(=O)O)N2C(=O)[C@@H](NC(=O)/C(=N\O)c3csc(N)n3)[C@H]2SC1 [Cmpd 3, trifluoroacetic acid salt]', 90),
  ('NCCSCc1cnccc1SC1=C(C(=O)O)N2C(=O)[C@@H](NC(=O)/C(=N\O)c3ccccc3)[C@H]2SC1.O=C(O)C(F)(F)F [Cmpd 26, trifluoroacetic acid salt]', 70),
  ('CNCC(=O)NCCSCc1cnccc1SC1=C(C(=O)O)N2C(=O)[C@@H](NC(=O)/C(=N\O)c3csc(N)n3)[C@H]2SC1 [Cmpd 18, trifluoroacetic acid salt]', 20);
